Where do the numbers come from? From patent US20210145976A1.

- system-tested: T1, recombinant biotinylated CD71 extracellular domain (Sino Biologics) with an N-terminal 6His tag (human, UniProt P02786 89-760, biotinylated (sites not given))
- T1 construct: extracellular domain; also called hCD71; huCD71
- T1 sequence (P02786 other isoform, or with tags, fused parts or gaps): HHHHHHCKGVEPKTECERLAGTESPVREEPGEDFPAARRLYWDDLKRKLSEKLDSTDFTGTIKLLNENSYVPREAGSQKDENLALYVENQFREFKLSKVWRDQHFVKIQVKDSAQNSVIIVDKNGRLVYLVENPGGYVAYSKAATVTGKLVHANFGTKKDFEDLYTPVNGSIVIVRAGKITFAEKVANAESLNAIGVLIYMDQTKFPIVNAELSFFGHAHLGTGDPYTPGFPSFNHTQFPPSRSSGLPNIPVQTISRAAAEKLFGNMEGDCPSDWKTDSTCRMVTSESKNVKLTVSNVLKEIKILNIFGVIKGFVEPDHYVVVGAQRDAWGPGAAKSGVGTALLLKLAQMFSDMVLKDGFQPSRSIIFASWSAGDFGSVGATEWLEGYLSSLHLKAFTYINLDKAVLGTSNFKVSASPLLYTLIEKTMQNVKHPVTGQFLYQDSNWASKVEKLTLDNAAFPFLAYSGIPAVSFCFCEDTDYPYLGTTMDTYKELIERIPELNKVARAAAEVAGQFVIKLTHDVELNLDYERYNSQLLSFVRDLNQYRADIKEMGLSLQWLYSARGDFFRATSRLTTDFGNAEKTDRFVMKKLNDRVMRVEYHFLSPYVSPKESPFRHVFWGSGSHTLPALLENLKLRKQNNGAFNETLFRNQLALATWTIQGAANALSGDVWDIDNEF
- experiment: screening ELISA
Reported hCD71 by item:

{"binder": "SEQ ID NO 98 (designed binder, FN3 domain) MLPAPKNLVVSRITEDSARLSWTAPDAAFDSFDIPYGEFDTIGEAIVLTVPGSERSYDLTGLKPGTEYDVYIEGVKGGHLSWPLSAIFTT", "hCD71": "1.16e+06"}
{"binder": "SEQ ID NO 162 (designed binder, FN3 domain) MLPAPKNLVVSRVTEDSARLSWTAPDAAFDSFHIAYEEATTYGEAIFLRVPGSERSYDLTGLKPGTEYDVWIEGVKGGTISGPLSAIFTT", "hCD71": "3.88e+06"}
{"binder": "SEQ ID NO 304 (designed binder, FN3 domain) MLPAPKNLVVSRVTEDSARLSWTAPDAAFDSFIITYWEHVGDGEAIVLTVPGSERSYDLTGLKPGTEYFVEIYGVKGGYLSKPLSAIFTT", "hCD71": "3.34e+06"}
{"binder": "SEQ ID NO 151 (designed binder, FN3 domain) MLPAPKNLVVSRVTEDSARLSWTAPDAAFDSFFIPYAEPSPTGEAIVLTVPGSERSYDLTGLKPGTEYGVVILGVKGGYGSDPLSAIFTT", "hCD71": "1.77e+06"}
